The values you see were collected from the supplement of paper PMC10567573.

B1: MFF (parent)
chain: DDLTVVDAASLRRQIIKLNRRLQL

- Variants of: B1
- Assay Notes: protein stability index of a GFP-peptide fusion (GPS, HEK-293T) (PSI 1-6); higher = more stable;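 further: lentivirally expressed fusions sorted by FACS into six bins by GFP to DsRed ratio, PSI derived from sequencing read proportions per bin multiplied by bin number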
- Condition Label: c terminus: a fixed tail appended
Recorded protein stability index, one value per entry.
Give a plain numeric answer without units written out.

Use the examples below as a reference point.
* Q23R | 2.23
* V6F | 2.29
* Q14P | 3.56
* R20Q | 1.85
* D7S | 2.24
* Q14T | 3.2
* N19D | 3.79
* L22D | 3.95

Lab note: A9H gave protein stability index of 2.52

protein stability index reading for L11Y : 2.82

The variant listed as Q23A shows protein stability index equal to 1.57

R12H yielded protein stability index of 2.58

Measured protein stability index, S10L : 1.24

Lab book: protein stability index of L24I noted as 2.32

protein stability index measured on Q14L = 2.45

// sample V6P , its protein stability index was 4.09

// protein stability index value for L22K : 3.74

Quick note, protein stability index for V6C landed at 2.41

Sample V5A ; protein stability index observed: 2.44

Looking up R20F , I see its protein stability index listed as 2.43

// protein stability index value for V5I : 2.66

Measured protein stability index of S10Q : 2.28
